# test-name: Inhibition of 10 uM ADP-induced human gel filtered platelet aggregation with 0.1 mg/mL human fibrinogen
Field: pIC50. Provide a value for each of the molecules that follow.
The scale used: pIC50 is minus the common logarithm of the concentration in molar units.

What measured pIC50 goes with O=C(O)CCNC(=O)c1cccc(C(=O)NCC2CCNCC2)c1 ?
3.48

Entry under review: O=C(O)CCNC(=O)c1ccc2c(c1)C(=O)C(CCC1CCNCC1)C2 (centres undefined) . Reported pIC50?
2.64

Looking for the measured pIC50 of O=C(O)CCN1Cc2ccc(C(=O)NCCC3CCNCC3)cc2C1=O , can you help?
2.00

Look at this molecule and give its reported pIC50. O=C(O)CCNC(=O)c1ccc2c(c1)C(=O)N(CCC1CCNCC1)C2
4.60
